test: protein stability index of a GFP-peptide fusion (yeast GPS) (PSI 1-4); higher = more stable; sorted into four equal gates, so the index is relative within each strain; conditions: ubr1∆
Provide the recorded protein stability index for the entries that follow.
One number for each entry.

Items follow; give protein stability index for each.
1. WAVKEGPLAEEPIYGVQ [SNU114]
2. KGNLLEGKKVMAPYLPG [RPN2]
3. VSLVAEATSNTNSEDKL [MED4]
4. NTILNSSSDFRLHYYPK [BRR2]
5. LLRNLESKMRQQEAKYR [YDL088C/ASM4]

Reply text:
[1.8, 2.14, 2.65, 3.11, 1.36]

Items follow; give protein stability index for each.
1. HHDYRSYYGIVCLMQIS [RRP6]
2. TRMQRGHRADVGGQFSK [REC8]
3. EELFTQLFHSMSIVFGD [UBP6]
4. HEDLVNSIESKNLSLQT [COR1]
5. TPYNADFDGDEMNLHVP [RPO31]
6. CAECSSKLSLSRTDAVR [RPC10]

Reply text:
1. 1.68
2. 3.39
3. 2.98
4. 2.97
5. 3.21
6. 2.35

---

experiment: protein stability index of a GFP-peptide fusion (yeast GPS) (PSI 1-4); higher = more stable; sorted into four equal gates, so the index is relative within each strain; settings: pdr5∆
metric.name: protein stability index
Answers are plain numbers.

The cases that follow already have their protein stability index on record.
IRKTPLAQKKAHLAEIQ [RPL3]; 1.39
SKKIVPSPKKVAIDQDK [SIR4]; 2.91
ILVPDLYHLVIMKFQSL [ECM29]; 1.3
QQQPQPQYNMNMGMNNM [PGD1]; 2.77
EEEYDETHETNISNAKL [YAR002W/NUP60]; 3.21

Items follow; give protein stability index for each.
1. QDGVLLVALSNEPAARL [FAS2]
2. SHTDQPANVLLVQSLND [NNF1]
3. NNNGNSAASKKKKNKNK [SRP21]
4. GVANTDTAGEESQQQDE [SWI3]
5. AKSTPNTNPSPLKTQTK [GAL11]

Reply text:
1: 1.9; 2: 2.16; 3: 3; 4: 3.55; 5: 2.94

Items follow; give protein stability index for each.
1. DLKPANIMVTIDGCVKI [SSN3]
2. KREGKTRLLNIVMQLRK [ISW2]
3. PELAMALRLSMEEEQQR [RPN10]
4. IKELRSKGYPIQFLTIG [FAS1]

Reply text:
1.83
3.02
3.09
2.22

Items follow; give protein stability index for each.
1. RAKAEAAEFRYKYGYDM [SCL1]
2. NLNVYIQVFEKPFLKKT [CDC53]
3. PEMSNLYRLSTPLRDEV [PRP8]
4. RTMYFILDGQDVEENRS [YJR042W/NUP85]
5. PFKVFLDIGLQRTTTGA [RPL5]
6. YRNNEPAGFTHKLSNWL [YDL088C/ASM4]

Reply text:
1. 2.91
2. 2.23
3. 2.76
4. 3.03
5. 2.04
6. 3.04

Items follow; give protein stability index for each.
1. NGGEDTSVENEGPVANL [REC8]
2. RSALEKGSRFISTLQVK [RPB2]
3. TLESLENLVVADLESFA [COR1]
4. IDESMPDTAIDSQMDEA [GRR1]
5. DNKINEIKLLEISCKQW [CSI1]
6. VVSTTAVIESVVNQPTG [FAS1]

Reply text:
1: 3.45; 2: 1.23; 3: 2.67; 4: 3.08; 5: 2.43; 6: 1.82

Items follow; give protein stability index for each.
1. TCSYVEEAGSPLVYRHE [RPB9]
2. IKESSKKIKGKSIQDIV [SRP21]
3. APIPKGRVKYTKRQKHF [POP1]

Reply text:
2.92
3.31
1.9

Items follow; give protein stability index for each.
1. STYRLEDVLSSFYRVEK [SSN2]
2. DPDIPMTIDLEPIEESS [IRR1]

Reply text:
2.34
3.45

Items follow; give protein stability index for each.
1. EMGYLIQISKLHYTPIE [RPC82]
2. PLGVILTFVSVDEELGP [SCL1]
3. DFREKALYIAMMTRRVV [RET1]
4. CYVGLLTAIPILLEPIY [SNU114]
5. NISNNLQKALTVKTNDE [RPN8]
6. KEMTLQKNMNDLLRSQL [YIL149C/MLP2]
7. VKSFKPHLLKQGLAMVE [RRP42]
8. LKVLSEHLDCMNFISKE [PCI8]

Reply text:
2.06
1.9
1.58
1.23
3
2.43
2.35
3.14
